target: T1, rhNav1.7α + β1-β2-β3 (rhesus monkey); experiment: binding FACS, CHO FlpIn cells
T1 construct: also called rhNav1.7-beta1-beta2-beta3; rhesus Nav1.7α
Let's look at some binders and their measured Bmax.

Binder	Bmax
F010302339 (VHH) VHH: EVQLVESGGGVVQPGGSLRLSCAASHRAFIRDVFTGWYRRAPGKQRELVARIYEGGNTQYADSAKGRFTISRDNAKKTVYLQMNSLRPEDTALYYCLFSGTISTGREYRSGDYWGQGTLVTVSS	100%
F010302347 (VHH) VHH: EVQLVESGGGVVQPGGSLRLSCAASHRAFIRDVFTGWYRQAPGKQRELVARIYEGGNTQYADSAKGRFTISRDNAKKTVYLQMNSLRPEDTALYYCLFSGTISTGREYRSGDYWGQGTLVTVSS	100%
F010301887 (VHH, R31Q vs F0103464B09 (Kabat)) VHH: EVQLVESGGGLVQPGGSLRLSCATTSRAFIQDVFTGWYRRVPGKERELVARIYNGGNTNYADFAKGRFSISRDNAKKMVTLRMSNLKPEDTGVYYCLFSGTINTGREYRSGDYWGQGTLVTVSS	51%
F010301882 (VHH, I30V vs F0103464B09 (Kabat)) VHH: EVQLVESGGGLVQPGGSLRLSCATTSRAFVRDVFTGWYRRVPGKERELVARIYNGGNTNYADFAKGRFSISRDNAKKMVTLRMSNLKPEDTGVYYCLFSGTINTGREYRSGDYWGQGTLVTVSS	43%
F010302356 (VHH) VHH: EVQLVESGGGVVQPGGSLRLSCAASHRAFIRDLFTGWYRRAPGKQRELVARIYESGNTNYADSVKGRFTISRDNAKKTVYLQMNSLRPEDTALYYCLFSGTISTGREYRSGDYWGQGTLVTVSS	81%
